test system: MCF-7; test: MTT anti-proliferative assay on MCF-7; assay type: cell-based, human; details: Homo sapiens, MCF7, 48 h, MTT, 48 hours treatment, mean ± SD (n = 2)
pIC50: −log10 of the molar value.
QUANTITY_MEASURED: pIC50

FC(F)(F)c1c(-c2cccs2)noc1-c1ccco1 ... 5.26
FC(F)(F)c1c(-c2ccco2)noc1-c1cccs1 ... 5.27

I. FC(F)(F)c1c(-c2ccccc2)noc1-c1cccs1
II. COc1ccc(-c2noc(-c3cccs3)c2C(F)(F)F)cc1OC
Enquiry: Compare reported pIC50 values for I and II . Which is lower? Identify your pick by its label.
Return: I
(I: 5.09, II: 5.58)

----------
system: MCF-7; test: MTT anti-proliferative assay on MCF-7; format: cell-based, human; conditions: Homo sapiens, MCF7, 48 h, MTT, 48 hours treatment, mean ± SD (n = 2)
pIC50: −log10 of the molar value.
QUANTITY_MEASURED: pIC50

FC(F)(F)c1c(-c2cccs2)noc1-c1c[nH]cc1-c1cccs1 ... 5.51
COc1ccc(-c2cc(-c3cccs3)on2)cc1OC [Compound 14, reference compound] ... 4.71
c1ccc(-c2cc(-c3ccccc3)on2)cc1 ... 4.88
FC(F)(F)c1c(-c2ccccc2)noc1-c1ccccc1 ... 4.95
c1ccc(-c2cc(-c3cccs3)on2)cc1 ... 5.00
FC(F)(F)c1c(-c2cccc3ccccc23)noc1-c1cccs1 ... 4.98
FC(F)(F)c1c(-c2cccs2)noc1/C=C/c1cccs1 ... 4.86

A. FC(F)(F)c1c(-c2cccs2)noc1-c1ccccc1
B. Nc1ccccc1NC(=O)c1cnccn1 [BG-45, reference compound]
Enquiry: Compare reported pIC50 values for A and B . Which is lower? Identify your pick by its label.
Return: B
(B: 4.36, A: 5.01)

----------
tested on: 4T1; test: MTT anti-proliferative assay on 4T1; format: cell-based, mouse; conditions: Mus musculus, 4T1; MTT, 48 hours treatment, mean ± SD (n = 2)
pIC50: −log10 of the molar value.
QUANTITY_MEASURED: pIC50

Consider the worked cases shown below.
FC(F)(F)c1c(-c2cccs2)noc1/C=C/c1cccs1 ... 4.35
FC(F)(F)c1c(-c2cccc3ccccc23)noc1-c1cccs1 ... 4.43

P. FC(F)(F)c1c(-c2ccccc2)noc1-c1cccs1
Q. FC(F)(F)c1c(-c2cccs2)noc1-c1c[nH]cc1-c1cccs1
Enquiry: Endpoint returns whichever of P and Q has the numerically higher pIC50. Identify your pick by its label.
Return: Q
